Tested on: Saccharomyces cerevisiae
Assay: protein stability index of tFT-peptide fusion (C-terminal peptide) (PSI (0-1 scale)); higher = more stable (slower turnover)
Conditions: genetic background: wild type; temperature: 30 C
Classification field: enter label 1 for protein stability index values not below 0.7, label 0 for values below it.

1) RKSKRVLPVSKF [PET309 C-terminal 12 aa] :: label 1

Please look at the following sequence next.
Is protein stability index for EPYNIKYSNSKK [MSD1 C-terminal 12 aa] at or above 0.7?
label 0

----------
Tested on: Saccharomyces cerevisiae
Assay: protein stability index of tFT-peptide fusion (C-terminal peptide) (PSI (0-1 scale)); higher = more stable (slower turnover)
Conditions: genetic background: das1 deletion; temperature: 37 C
# label = bin(measured protein stability index), where bins are L: < 0.4; M: ≥ 0.4 and < 0.6; H: ≥ 0.6

1) VLVCYFCRYISH :: M

Which of the defined bands does the recorded protein stability index of CTLVVGLFVLVV sit within?
L

Which of the defined bands does the recorded protein stability index of DSGMLDFLLMAW sit within?
M

Which of the defined bands does the recorded protein stability index of VFLACSMTGGDA sit within?
L

Which of the defined bands does the recorded protein stability index of IFLKFGLLRSLL sit within?
H

Which of the defined bands does the recorded protein stability index of CLFLNCRFYMFL sit within?
H

Reference source: the supplement of paper PMC10724198
